experiment: inhibitors of E-selectin induction by TNFa, primary screen, imaging, HUVEC, immunofluorescence, MLSMR starter and 10KST1 sets (AID 487); conditions: HUVEC TNFalpha-induced E-selectin immunofluorescence imaging, at 2 µM; stronger effect = higher value;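 also: signal is fraction of cell area covered by stained E-selectin grains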
Outcome: 1 (yes) for inhibition of at least -20%; 0 (no) for anything lower.

O=C(NCCc1c[nH]c2ccccc12)c1cnc2n(c1=O)CCS2 ... 0 (no)
CN1CCCC(OC(=O)c2ccc3c(c2)OCCO3)C1 (stereo not given) ... 1 (yes)
CCOC(=O)NC(Nc1cc(C)on1)(C(F)(F)F)C(F)(F)F ... 0 (no)
O=C(NC(=O)c1cccc(F)c1)OC[C@@H]1CCCN2CCCC[C@H]12 ... 0 (no)

// next entry
INPUT: Threshold query (inhibition >= -20%) on COc1ccccc1N1CCN(C(=O)c2c(-c3c(Cl)cccc3Cl)noc2C)CC1
OUTPUT: 0 (no)

* * *

experiment: inhibitors of TNFa-induced NFkB p65 translocation, primary screen, imaging, HUVEC, MLSMR starter and 10KST1 sets (AID 438); settings: HUVEC TNFa-induced p65 nuclear translocation; at 2 µM, stronger effect = higher value, 0% TNFa-plus-vehicle, 100% no-TNFa wells;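 also: compound added about 3h40 before a 20 min TNFalpha stimulation; signal is the nuclear over cytoplasmic p65 intensity ratio per well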
compounds and their reported inhibition
Return type: number; implicit unit %.

N#Cc1nc(-c2cccs2)oc1NCc1ccc2c(c1)OCO2 ... -4.4
COc1ccc(-c2nc(CSCC(=O)NCc3ccc4c(c3)OCO4)c(C)o2)cc1OC ... -3.3
O=C1CC(c2ccccc2)n2nc(N3C(=O)c4ccccc4C3=O)nc2N1 (centres undefined) ... 3

GET /value?item= Cc1ccc(S(=O)(=O)N(CC(O)CN(C)C)c2ccccc2)cc1 (centres undefined) &field=inhibition returns -13.1

* * *

experiment: inhibitors of Sendai virus-induced IRF3 signaling, primary screen, TLR/RLR signaling modifier project, cell-based, Sendai virus stimulus, luciferase, 10K MLSCN set (AID 602276); details: HEK293 RL24 IRF3 luciferase reporter, at 10 µM, stronger effect = higher value;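 also: firefly luciferase from ISG56 promoter only with Renilla not read in this screen; 0% = Sendai virus plus DMSO and 100% = medium plus DMSO without virus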
Calls of active or inactive are those of the source.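 The calls were made as follows: active = inhibition at or above 50% at 10 µM; inactive = inhibition below 50%.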
Each entry below carries its reported inhibition.

CN(C)c1ccc(-c2nn3c(-c4ccc(Cl)cc4Cl)nnc3s2)cc1 ... -25.6% (inactive)
COC(=O)c1nnn(-c2ccccc2)c1N ... 6.82% (inactive)
CC1=C(C(=O)OC2CCCCCC2)C(c2ccc(C)o2)C2=C(CCCC2=O)N1 (configuration not stated) ... -8.61% (inactive)

The recorded inhibition for COc1ccc(-c2nc(CSCC(=O)N3CCc4ccccc4C3)c(C)o2)cc1OC is 8.21% (inactive)

Please fill in: inhibition reported for O=C(NCc1ccco1)c1ccccc1Nc1ccc(F)cc1 = 5.52% (inactive)

Record Cc1ccc(-c2noc(CCC(=O)NCC3CCN(Cc4cccc(C)c4)CC3)n2)cc1 , field inhibition: 25.8% (inactive)

get_value(item= O=C(NCc1ccccc1)C1CCCN1S(=O)(=O)c1cccc2cccnc12 (configuration not stated) , readout=inhibition) returns 3.4% (inactive)

// recorded inhibition for COc1ccc(C(=O)Nn2c(C3CCC3)nc3ccccc3c2=O)c(OC)c1 : -0.704% (inactive)

# inhibition (compound: CCOCCn1c(CN2CCN(CC)CC2)nc2c1c(=O)n(C)c(=O)n2C ) is 4.19% (inactive)

Sample CCCC(=O)Nc1cnc(NC(=O)c2cccc(F)c2)cc1C ; inhibition observed: -24.4% (inactive)

The compound listed as CCOC(=O)N1CCN(C(=O)c2cccn3c(=O)c4sccc4nc23)CC1 shows inhibition equal to -8.79% (inactive)

So for CCOC(=O)CSc1nnc(Cn2c(=O)sc3ccccc32)n1C , the logged inhibition turned out to be 8.16% (inactive)

// inhibition lookup, compound = O=C(NCc1ccco1)c1cccn2c(=O)c3sccc3nc12 , result: -2.36% (inactive)

Given item CCOC(=O)c1ccc(N2C(=O)CC(N(C)CCc3ccc(OC)c(OC)c3)C2=O)cc1 (configuration not stated) , the value recorded as its inhibition is -7.6% (inactive)

The compound identified as CC(=O)Nc1ccc(S(=O)(=O)N2CCC(NC(C)=O)(c3cccc(F)c3)CC2)cc1 registered its inhibition at 8.44% (inactive)

compound O=C(NCCc1c[nH]c2ccccc12)c1cnc2n(c1=O)CCS2 , inhibition observed: -48.8% (inactive)

* * *

experiment: inhibitors of TNFa-induced NFkB p65 translocation, primary screen, imaging, HUVEC, MLSMR starter and 10KST1 sets (AID 438); conditions: HUVEC TNFa-induced p65 nuclear translocation; at 2 µM, stronger effect = higher value, 0% TNFa-plus-vehicle, 100% no-TNFa wells;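 also: compound added about 3h40 before a 20 min TNFalpha stimulation; signal is the nuclear over cytoplasmic p65 intensity ratio per well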
Quantity: inhibition (%)
Please give a number only; it is taken to be in %.

Here's what some known entries look like.
Cc1cc(=O)oc(C)c1C(=O)NCCC1=CCCCC1 ... -7.1
CC(C)CN(C(=O)c1ccc(=O)n(C)n1)c1nc2ccccc2s1 ... 4.8

Now for the molecule whose inhibition we want.
Sure, the documented inhibition for Cc1nc2sc(C(c3cccc(F)c3)N3CCOCC3)c(O)n2n1 (stereo not drawn) is -9

* * *

Listing of entries alongside the reported inhibition.
test: inhibitors of poly I:C-induced TLR3 signaling, primary screen, cell-based, poly I:C stimulus, luciferase, 10K MLSCN set (AID 602277); conditions: HEK293-TLR3 RL24 IRF3 luciferase reporter, at 10 µM, stronger effect = higher value
The answer is to be given in %; state only the numeric part.

CCOC(=O)C1=C(C)Nc2nnnn2C1c1c[nH]c2ccccc12 (configuration not stated) ... 8.76
CCOC(=O)N1CCN(C(=O)CSc2nnc(-c3cc(OC)cc(OC)c3)o2)CC1 ... 29.1
COc1ccc(S(=O)(=O)N2CCC(C(=O)c3ccc4c(c3)OCCO4)CC2)cc1 ... 12.1
COc1cc(NC(=O)CN(c2cc(C)cc(C)c2)S(=O)(=O)c2c(C)noc2C)cc(OC)c1 ... 19.5

Entry under test: Cc1ccc(-n2ncc3c(=O)n(CC(=O)NCc4ccco4)cnc32)cc1 . Its inhibition was 20.3

Looking up COc1ccc(C(O)C(CN2CCOCC2)c2ccccc2)cc1F (configuration not stated) , I see its inhibition listed as 17.9

inhibition for CC1=C(C(=O)OC2CCCCCC2)C(c2ccc(C)o2)C2=C(CCCC2=O)N1 (configuration not stated) is -19.9

The recorded inhibition for entry Cc1oc(-c2cccc(Cl)c2)nc1CN1CCC(C(=O)N2CCN(c3ccccc3F)CC2)CC1 equals -26

Entry under test: COc1cccc(C2=NOC(C(=O)N3CCN(c4ccccc4)CC3)C2)c1OC (configuration not stated) . Its inhibition was 6.35

Sample Cn1c(=N)c(S(=O)(=O)c2ccc(Cl)cc2)cc2c(=O)n3ccccc3nc21 ; inhibition observed: 40.1

Field inhibition (entry O=C(NCc1ccco1)C1(S(=O)(=O)c2ccc(Cl)cc2)CC1 ) reads 32.7

Lab note: Nc1nnc(C(=O)c2ccccc2N)s1 gave inhibition of -4.86

The molecule identified as Cc1cc(C)nc(SCC(=O)Nc2ncc3c(n2)CCCC3=O)n1 registered its inhibition at 11.4

* * *

test: inhibitors of E-selectin induction by TNFa, primary screen, imaging, HUVEC, immunofluorescence, MLSMR starter and 10KST1 sets (AID 487); settings: HUVEC TNFalpha-induced E-selectin immunofluorescence imaging, at 2 µM; stronger effect = higher value;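 also: signal is fraction of cell area covered by stained E-selectin grains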
Quantity: inhibition (%)
Field format: number, assumed %, no unit text.

COC(=O)CSc1nc(-c2cccs2)ccc1C#N ... -18.4
CCOC(=O)C1(c2ccccc2)NC(c2ccc(N(C)C)cc2)C2C(=O)N(C)C(=O)C21 (stereo not drawn) ... -87.1

Please find the next compound below.
Looking up CC1(C)Cc2c(C#N)c(N3CCN(C(=O)c4ccccc4)CC3)nc(-c3ccco3)c2CS1 , I found its inhibition recorded as -74.3

* * *

assay: inhibitors of E-selectin induction by TNFa, primary screen, imaging, HUVEC, immunofluorescence, MLSMR starter and 10KST1 sets (AID 487); conditions: HUVEC TNFalpha-induced E-selectin immunofluorescence imaging, at 2 µM; stronger effect = higher value;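 also: signal is fraction of cell area covered by stained E-selectin grains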
Quantity: inhibition (%)
Write it as a number; the unit % goes unstated.

CCOC(=O)CSc1nnc(Cn2nnc(-c3ccccc3)n2)n1CC ... -34.4

Lab book: inhibition of c1ccc(-c2cc(N3CCCCC3)ncn2)cc1 noted as -109

* * *

Reported nuclei count is given for each of the following compounds.
experiment: inhibitors of mutant huntingtin aggregation, primary screen, imaging, exon1htt(103Q)mCFP cells, high-content imaging (AID 483); settings: exon1htt(103Q)mCFP cell line, aggregate imaging, at 2 µM; measured here: cell count, toxicity;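 also: compound exposure lasted 3 days before fixation; percent of the per-plate median nuclei count of sample wells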

N#Cc1c(NCc2ccccc2)ccnc1NCc1cccnc1 ... 104%
O=C1NC(Nc2ccccn2)(C(F)(F)F)C(=O)N1c1ccc(F)cc1 (configuration not stated) ... 110%
COc1cccc(NC(=O)C2C3C=CC4(O3)C2C(=O)N(C(C)C)C4C(=O)NC2CCCCC2C)c1 (configuration not stated) ... 110%
COc1ccccc1N1CCN(C(=O)c2ccc(S(=O)(=O)N3CCCCCC3)cc2)CC1 ... 89.6%
CCOC(=O)c1ccc(NC(=O)CSc2n[nH]c(-c3ccncc3)n2)cc1 ... 99.9%

Notebook: CSc1nc(N)nc(SCCS(=O)(=O)c2ccc(Cl)cc2)c1C#N , nuclei count read as 95.8%

The compound identified as O=c1[nH]cnc2c1C1(CCCC1)Cc1ccccc1-2 registered its nuclei count at 87%

// nuclei count lookup, compound = Cn1c(=O)c2nc(Cl)n(Cc3ccc(Cl)cc3Cl)c2n(C)c1=O , result: 89.6%

Field nuclei count (entry Cc1cc(C)nc(Sc2ccc3nnc(C(F)(F)C(F)(F)C(F)(F)F)n3n2)n1 ) reads 115%

What the record says about CCCC(=O)Nc1cnc(NC(=O)c2cccc(F)c2)cc1C : nuclei count is 95.6%

Looking up CCC(C)NC(=O)CC1Oc2ccc(C)cc2NC1=O (configuration not stated) , I found its nuclei count recorded as 100%

Recorded nuclei count (compound Cc1cccc(OCCNC(=O)c2ncn[nH]2)c1 ): 100%

What the record says about CC(C)OC(=O)CSc1nnc(-c2ccccn2)n1-c1ccccc1 : nuclei count is 102%

Looking up CCOC(=O)Nc1ccc2c(c1)N(C(=O)OCCN(C)C)c1ccccc1CC2 , I see its nuclei count listed as 57.1%

# nuclei count (compound: COc1ccc(Cn2nnnc2C(c2cccnc2)N2CCN(c3ccc(O)cc3)CC2)cc1 (configuration not stated) ) is 92.7%

So, Cc1cc(-n2c(C)cc(C(=O)CSc3nnnn3-c3ccc(Cl)cc3)c2C)no1 ? Its nuclei count was 94%

Input CN(C)S(=O)(=O)c1ccc(/C(O)=C2/C(=O)C(=O)N(CCN3CCCCC3)C2c2cccnc2)cc1 (configuration not stated) . Output nuclei count: 88.2%

Data point: CC(c1ccccc1)n1cnc2ccccc21 (configuration not stated) ; nuclei count = 94.1%

// CCOC(=O)N1CCN(Cc2nc3c(c(=O)n(C)c(=O)n3C)n2Cc2ccccc2)CC1 : nuclei count value = 120%

Recorded result, Cc1c(C#N)sc2nc(-c3ccccc3)nc(N3CCCC3)c12 , nuclei count: 99.9%
